Assay: Cytotoxicity against human Huh7.5 cells by MTS assay
Format: cell-based, Huh-7
Give CC50 for every item shown.

**Q:** Indicate its recorded CC50; the compound in question is COc1ccc(O)c2c1C(=O)C(c1ccccc1OCc1ccccc1)CC2 (configuration not stated)
**A:** < 50 µM

**Q:** Indicate its recorded CC50; the compound in question is COc1ccc(C2CCc3ccc(OC)cc3C2=O)c(OC)c1 (configuration not stated)
**A:** < 50 µM

**Q:** Indicate its recorded CC50; the compound in question is COc1ccc2c(c1)CCC(c1ccc(OC)cc1OC)C2=O (configuration not stated)
**A:** < 50 µM

**Q:** Indicate its recorded CC50; the compound in question is COc1ccccc1C1CCc2ccccc2C1=O (configuration not stated)
**A:** 117 µM

**Q:** Indicate its recorded CC50; the compound in question is COc1cc2c(cc1OC)C(=O)C(c1ccccc1OC)CC2 (configuration not stated)
**A:** 126 µM

**Q:** Indicate its recorded CC50; the compound in question is COc1ccc(C2CCc3c(OC)cccc3C2=O)c(OC)c1 (configuration not stated)
**A:** 104 µM

**Q:** Indicate its recorded CC50; the compound in question is COc1ccc(C2CCc3c(OC)ccc(OC)c3C2=O)c(OC)c1 (configuration not stated)
**A:** < 50 µM

**Q:** Indicate its recorded CC50; the compound in question is COc1cccc2c1CCC(c1ccccc1O)C2=O (configuration not stated)
**A:** 111 µM

**Q:** Indicate its recorded CC50; the compound in question is COc1ccccc1C1CCc2c(OC)ccc(OC)c2C1=O (configuration not stated)
**A:** > 200 µM

**Q:** Indicate its recorded CC50; the compound in question is COc1ccc2c(c1)C(=O)C(c1ccccc1OC)CC2 (configuration not stated)
**A:** 111 µM

**Q:** Indicate its recorded CC50; the compound in question is COc1ccccc1C1CCc2c(O)ccc(OC)c2C1=O (configuration not stated)
**A:** > 200 µM

**Q:** Indicate its recorded CC50; the compound in question is COc1ccc(C2CCc3cc(OC)c(OC)cc3C2=O)c(OC)c1 (configuration not stated)
**A:** > 200 µM

###

System: Hepatitis C virus
Experiment: Antiviral activity against HCV genotype 1b infected in human Huh7/Rep-Feo1b replicon cells assessed as inhibition of viral viral RNA replication incubated for 48 hrs by luciferase reporter gene assay
Type: functional, cell-based, Hepacivirus hominis
Settings: Huh-7, 48 h
Hi! Just check whether EC50 is below 8 µM. Below gives 1.0, equal or above gives 0.0.

**Q:** Threshold test, EC50 < 8 µM: COc1ccc2c(c1)CCC(c1ccccc1OC)C2=O (stereo not given)
**A:** 0.0

**Q:** Threshold test, EC50 < 8 µM: COc1ccc2c(c1)CCC(c1ccc(OC)cc1OC)C2=O (stereo not given)
**A:** 1.0

**Q:** Threshold test, EC50 < 8 µM: COc1ccc(C2CCc3c(OC)cccc3C2=O)c(OC)c1 (stereo not given)
**A:** 0.0
